# target or system: MMP-9 of the rat (Rattus norvegicus, UniProt P50282)
# Sequence (P50282 108-708): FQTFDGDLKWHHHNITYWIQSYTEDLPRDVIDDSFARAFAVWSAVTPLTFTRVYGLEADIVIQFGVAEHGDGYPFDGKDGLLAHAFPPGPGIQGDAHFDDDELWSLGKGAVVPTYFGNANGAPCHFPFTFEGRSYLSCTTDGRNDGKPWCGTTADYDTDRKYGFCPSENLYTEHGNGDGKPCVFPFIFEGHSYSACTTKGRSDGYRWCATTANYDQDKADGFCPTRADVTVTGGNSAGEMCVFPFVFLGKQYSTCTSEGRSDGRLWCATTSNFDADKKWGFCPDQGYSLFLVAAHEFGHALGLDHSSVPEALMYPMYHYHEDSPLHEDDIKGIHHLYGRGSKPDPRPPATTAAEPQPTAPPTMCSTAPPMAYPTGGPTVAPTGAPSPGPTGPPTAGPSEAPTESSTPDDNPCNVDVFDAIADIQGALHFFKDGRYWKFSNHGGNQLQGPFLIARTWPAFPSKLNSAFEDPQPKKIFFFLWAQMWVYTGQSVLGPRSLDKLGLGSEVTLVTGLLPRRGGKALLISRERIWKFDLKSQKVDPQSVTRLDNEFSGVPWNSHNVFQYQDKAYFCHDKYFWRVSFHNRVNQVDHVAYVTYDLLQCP
readout label: pIC50
Interpret pIC50 as the negative base-10 log of the concentration measured in mol/L.

Previously resolved entries follow.
compound | readout label | meas value
CCCCCOc1ccc(C(=O)CC(CCn2nnc3ccccc3c2=O)C(=O)O)cc1 (single isomer, unassigned; enantiomer 1) [Comparative Example B-2] | pIC50 | 5.87
O=C(O)[C@@H]1[C@@H](Cn2nnc3ccccc3c2=O)CC[C@H]1C(=O)c1ccc(-c2ccc(Cl)cc2)cc1 (single isomer, unassigned; enantiomer 2) | pIC50 | 8.48
O=C(O)[C@H]1[C@H](Cn2nnc3ccccc3c2=O)CC[C@@H]1C(=O)c1ccc(-c2ccc(Cl)cc2)cc1 (racemic) | pIC50 | 8.34
O=C(O)[C@H]1[C@H](Cn2nnc3ccccc3c2=O)CC[C@@H]1C(=O)c1ccc(OCc2ccccc2)cc1 | pIC50 | 7.33

Please look at the following compound next.
Req: # get_value(readout= pIC50, system= MMP-9 of the rat (Rattus norvegicus, UniProt P50282)) for CCCCCOc1ccc(C(=O)CC(CCn2nnc3ccccc3c2=O)C(=O)O)cc1 (racemic) [Comparative Example B-1]
Resp: 5.49

====

# target or system: MMP-2 of the rat
# assay overview: In vitro MMP-2 inhibition test of the rat
readout label: pIC50
Please treat pIC50 as minus the base-10 logarithm of the molar concentration.

molecule | readout label | meas value
CCCCCOc1ccc(C(=O)CC(CCn2nnc3ccccc3c2=O)C(=O)O)cc1 (racemic) [Comparative Example B-1] | pIC50 | 6.21
O=C(O)[C@H]1[C@H](Cn2nnc3ccccc3c2=O)CC[C@@H]1C(=O)c1ccc(OCc2ccccc2)cc1 (racemic) [Example 1] | pIC50 | 7.48
O=C(O)[C@H]1[C@H](Cn2nnc3ccccc3c2=O)CC[C@@H]1C(=O)c1ccc(OCc2ccccc2)cc1 [Example 2] | pIC50 | 7.78

Req: Quick check: pIC50 of CCCCCOc1ccc(C(=O)CC(CCn2nnc3ccccc3c2=O)C(=O)O)cc1 (single isomer, unassigned; enantiomer 1) [Comparative Example B-2] ?
Resp: 6.84

Req: If you can, please state the reported pIC50 value of O=C(O)[C@H]1[C@H](Cn2nnc3ccccc3c2=O)CC[C@@H]1C(=O)c1ccc(-c2ccc(Cl)cc2)cc1 (racemic) .
Resp: 8.89

The origin of these recorded values is patent US20170119776A1.
